# Tested on: 439559-082-T-J2-PDC complex spheroid growth;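 also: spheroids exposed to agents for 7 days starting day 3 after seeding; percent of DMSO vehicle control viability with 100% = vehicle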
# measurement_protocol: Anticancer human tumor 439559-082-T-J2-PDC patient-derived colon adenocarcinoma cell line growth inhibition [Asc]
# study_conditions: second compound 1 µM; first compound 0.0316 µM; stronger effect = lower value
# From the text: Multicellular complex tumor spheroid response to apoptosis pathway targeting inhibitors Alrizomadlin, Pelcitoclax, and Dasminapant in combination with a variety of drugs and investigational agents in selected tumor cell lines […] Compounds. […] If the clinical Cmax for an agent had not been determined, the highest concentration tested was 10 microM. […]
Reported values of viability, T/C for individual entries
Field: numeric (%). Do not append units.

Field: example entries. Status: answers known.
**Query** Name the recorded viability, T/C of the molecule listed here: CCN1CCN(Cc2ccc(Nc3ncc(F)c(-c4cc(F)c5nc(C)n(C(C)C)c5c4)n3)nc2)CC1 + CNC(C)C(=O)NC1CN(S(=O)(=O)c2cccc(S(=O)(=O)N3CCC4CCC(C(=O)NC(c5ccccc5)c5ccccc5)N4C(=O)C(NC(=O)C(C)NC)C3)c2)CCC2CCC(C(=O)NC(c3ccccc3)c3ccccc3)N2C1=O
**Result** 69.4

**Query** Name the recorded viability, T/C of the molecule listed here: Cn1ncnc1[C@H]1c2n[nH]c(=O)c3cc(F)cc(c23)N[C@@H]1c1ccc(F)cc1 + Cc1c(S(C)(=O)=O)c(-c2cc(F)cc(N3CCN(c4ccc(NS(=O)(=O)c5ccc(NC(CCN6CCC(C(=O)OCCCP(=O)(O)O)CC6)CSc6ccccc6)c(S(=O)(=O)C(F)(F)F)c5)cc4)CC3)c2)c(-c2ccc(Cl)cc2)n1C(C)C
**Result** 85.4

Field: next molecule
**Query** Name the recorded viability, T/C of the molecule listed here: COc1c(OCCCN2CCOCC2)ccc2c3n(c(=NC(=O)c4cnc(N)nc4)nc12)CCN3 + Cc1c(S(C)(=O)=O)c(-c2cc(F)cc(N3CCN(c4ccc(NS(=O)(=O)c5ccc(NC(CCN6CCC(C(=O)OCCCP(=O)(O)O)CC6)CSc6ccccc6)c(S(=O)(=O)C(F)(F)F)c5)cc4)CC3)c2)c(-c2ccc(Cl)cc2)n1C(C)C
**Result** 82.6
